Tested on: HL-60(TB) leukemia
assay_overview: NCI-60 one-dose screen, 48 h
condition_description: 10 µM unless noted
This is part of a sample that, as a whole, favours compounds with a hit. Of some 83,000 tested, about 20% had one in any assay. The source made the active and inactive calls. The calls were made as follows: active = growth percent below 10; inactive = the rest.
Respond using exactly one of the listed classes: TRUE for active, FALSE for inactive

q: What is the recorded call for this compound in the test? `NC(=O)Nc1ccc(-n2cnc3cc(-c4ccc(O)cc4)ccc32)cc1`
a: FALSE

q: What is the recorded call for this compound in the test? Cc1nc2c3c(ncn2n1)Oc1c(c(=O)[nH]c2ccccc12)C3c1ccc(Cl)cc1 (stereo unspecified)
a: FALSE
